- System: XIP peptide (Xip251-270)
- assay comment: small-molecule binders of XIP peptide, primary screen, biochemical, small-molecule microarray, fluorescence 635/667 nm, 0.5 µg/mL protein (AID 1183)
- run conditions: small-molecule microarray binding, fluorescence 635 nm; higher = more signal
readout: composite z-score
No unit in the answer, please; the number alone is enough.

INSERT INTO assay_data (compound, readout, experimental_value) VALUES
  ('[N-]=[N+]=Nc1ccccc1C[C@@]1(C(=O)NCc2ccccc2)N=C(c2ccc(OCCCO)cc2)O[C@@H]1c1ccccc1', 'composite z-score', 0.746),
  ('O=C1NC(=O)C2C1C=CC(C(O)C1CCCCC1)N2Nc1ccccn1 (stereo not drawn)', 'composite z-score', 0.27);

Query block: Which value of composite z-score has been reported for "CC(C)Cc1ccc(CN2CC[C@@H](NC(=O)c3ccccc3)C2)cc1" in the records?
Result block: 0.447

Query block: Which composite z-score reading was recorded for the compound "COC(=O)[C@@]1(Cc2ccc(OC)cc2)[C@@H]2[C@@H](CC(=O)[C@H]2CC(=O)C(=O)N(C)C)CN1C(=O)c1ccccc1" ?
Result block: 0.516

Query block: Recorded composite z-score of "CC[C@@H]1C=C(C(=O)O)[C@H](c2cccc(Cl)c2)N1S(=O)(=O)c1ccc(C)cc1" , please.
Result block: 0.141

Query block: What measured composite z-score goes with COc1ccc(C(O)C2C=CC3C(=O)N(c4ccccc4)C(=O)C3N2Nc2ccccc2F)c2ccccc12 (stereo not drawn) ?
Result block: 0.795

Query block: Using the record for "COCCCNC(=O)[C@@]1(Cc2ccccc2I)c2ccccc2C(=O)N(Cc2ccccc2OC)[C@H]1c1ccc(CO)cc1" , report its composite z-score.
Result block: 0.0714

Query block: What does the data say about its composite z-score? Entry: "O=C1O[C@H](c2ccccc2)[C@H](c2ccccc2)N2[C@H]1[C@@H](C(=O)O)[C@]1(C(=O)Nc3ccccc31)[C@H]2c1ccc(OCCO)cc1"
Result block: 0.711

* * *

- assay comment: osmotic lysis modulators in infected erythrocytes, primary screen, PSAC antagonist project, cell-based, P. falciparum Indochina, OD700, 3 h (AID 1156)
- run conditions: higher = more signal, called active from +8 up or from −8 down
If the reported z-score equals or exceeds 0.6, assign label 1. If not, assign label 0.

Some solved cases for reference:
INSERT INTO assay_data (compound, label) VALUES
  ('COc1ccc(CCNC(=O)[C@@H]2c3ccccc3C(=O)N(Cc3cc(F)cc(C(F)(F)F)c3)[C@H]2c2ccc(CO)cc2)cc1', 'label 0'),
  ('COc1ccc(C(O)C2C=CC3C(=O)N(C)C(=O)C3N2Nc2ccccc2)cc1 (configuration not stated)', 'label 0'),
  ('COC(=O)C(CC#Cc1ccc2c(c1)[C@]1(C(=O)N2)[C@H](C(=O)NC[C@H](O)c2ccccc2)[C@H]2C(=O)O[C@H](c3ccccc3)[C@H](c3ccccc3)N2[C@@H]1c1ccc(O)cc1)C(=O)OC', 'label 0'),
  ('Cc1ccc(S[C@]2(C(=O)NCc3ccccc3)CC(=O)N(Cc3ccccc3Cl)[C@@H]2c2ccc(CO)cc2)cc1', 'label 1'),
  ('C=C(C(=O)CC[C@@H](OC(=O)c1ccccc1-c1ccccc1C(=O)O)c1ccc(CO)o1)C(C)C', 'label 0');

Query block: State whether the measured z-score reaches 0.6, counting equality as reaching it, for "COCCCNC(=O)[C@@]1(Cc2ccccc2I)c2ccccc2C(=O)N(Cc2ccccc2C(F)(F)F)[C@H]1c1ccc(CO)cc1"
Result block: label 1

Query block: Kindly determine if z-score recorded for "CN(C)C(=O)[C@]1(CCS(=O)(=O)c2ccccc2)N=C(c2ccc(OCCCO)cc2)O[C@@H]1c1ccccc1CN=[N+]=[N-]" is above or exactly 0.6.
Result block: label 1

* * *

- assay comment: PSAC antagonists in infected red cells, primary screen, cell-based, P. falciparum Indochina, OD700, 1 h (AID 1154)
- run conditions: P. falciparum Indochina infected RBC osmotic lysis, called active from +8 up or from −8 down
Activity calls are given as the source filed them.
Answer with one of the outcomes given here: active, inactive

Before answering, review these 5 worked examples.
INSERT INTO assay_data (molecule, label) VALUES
  ('CCOC(=O)C1=C[C@@H](C(C)(C)C)N(S(=O)(=O)c2ccc(C)cc2)[C@H]1c1ccc(OC)cc1', 'inactive'),
  ('C=CC[C@]12N=C(c3ccc(OCCCO)cc3)O[C@H]1c1ccccc1N(CCC)C2=O', 'active'),
  ('O=C1O[C@H](c2ccccc2)[C@H](c2ccccc2)N2[C@H]1[C@@H](C(=O)N1CCN(c3ncccn3)CC1)[C@]1(C(=O)Nc3ccc(C#CC4(O)CCCCCC4)cc31)[C@H]2c1ccc(O)cc1', 'inactive'),
  ('O=C1N(Cc2ccccc2)c2ccccc2C[C@@]12N=C(c1ccc(OCCCO)cc1)O[C@H]2c1ccccc1', 'active'),
  ('CN(C)CCCCCCNC(=O)[C@@H]1C[C@@H]2C(=O)N[C@@H](CCCC[N+](C)(C)C)C(=O)N2[C@@H]1c1cccc(OCCO)c1', 'inactive');

Query block: # fetch the recorded call for "CCOC(=O)C=C1C[C@@H](c2cccc([N+](=O)[O-])c2)O[C@@H](c2cccc([N+](=O)[O-])c2)O1" here
Result block: inactive

Query block: // outcome(item) with item = "COCCOC(=O)N1C(=O)[C@@]2(c3cc(C#CCC(C(=O)OC)C(=O)OC)ccc31)[C@H](C(N)=O)[C@H]1C(=O)O[C@H](c3ccccc3)[C@H](c3ccccc3)N1[C@@H]2c1ccccc1OCCO"
Result block: active

Query block: // outcome(item) with item = "COc1cc2c(cc1OC)CN(C(=O)[C@@H]1[C@H]3C(=O)O[C@H](c4ccccc4)[C@H](c4ccccc4)N3[C@H](c3ccc(O)cc3)[C@@]13C(=O)Nc1ccc(C#CC4=CCCCC4)cc13)CC2"
Result block: inactive

Query block: Each compound tested received a call. Report the one for "CC(C)[Si](C#Cc1ccccc1)(O[C@H](c1ccccc1)c1cn(Cc2ccccc2)nn1)C(C)C" .
Result block: inactive

Query block: Hey, what did the test say about "CCCCCCc1nc(-c2ccc(OC)nc2)c(C)c2c1[Si](C(C)C)(C(C)C)OC2" ?
Result block: inactive

* * *

- assay comment: FRG1 promoter luciferase signal modulators, primary screen, FRG1 inhibition for FSHD, cell-based, C2C12 myotubes, firefly/Renilla luciferase, luminescence (AID 1084)
- run conditions: higher = more signal, called active from +8 up or from −8 down
readout: z-score
Lab note: record the figure alone, no unit after it.

Use these answered entries as a reference point.
INSERT INTO assay_data (molecule, experimental_value) VALUES
  ('C=CCOC(=O)[C@H]1[C@@H]2C(=O)O[C@@H](c3ccccc3)[C@@H](c3ccccc3)N2[C@@H](c2ccc(OCCOC(=O)[C@H]3C[C@H]4C(=O)NCC(=O)N4[C@H]3c3ccc(O)cc3)cc2)[C@]12C(=O)Nc1ccccc12', 0.575),
  ('O=C(CS)NCCCCCCNC(=O)[C@H]1C[C@H]2C(=O)NCC(=O)N2[C@H]1c1cccc(OCCO)c1', 0.525),
  ('CCCC1(C(=O)OC)C=C2C(=C(C(C)C)C(=O)C2C)CN1 (configuration not stated)', 1.89),
  ('O=C1O[C@H](c2ccccc2)[C@H](c2ccccc2)N2[C@H]1[C@@H](C(=O)O)[C@]1(C(=O)Nc3ccc(C#CC4(O)CCCCCC4)cc31)[C@H]2c1ccccc1OCCO', -0.283),
  ('COC(=O)C(CC#Cc1ccc2c(c1)[C@]1(C(=O)N2)[C@H](C(=O)N2CCCCCCC2)[C@H]2C(=O)O[C@H](c3ccccc3)[C@H](c3ccccc3)N2[C@@H]1c1ccc(OCCO)cc1)C(=O)OC', 1.91);

Query block: Fill blank: measured z-score of the molecule "Cc1ccc(S(=O)(=O)N2[C@@H](c3ccccc3)C(C(=O)O)=CC[C@H]2c2ccc(F)cc2)cc1" is ____.
Result block: -2.75

Query block: Tell me the measured z-score of "O=C(N1CCOCC1)[C@]1(CCS(=O)(=O)c2ccccc2)N=C(c2ccc(OCCCO)cc2)O[C@@H]1c1ccccc1" , please.
Result block: -1.49

* * *

- assay comment: E. coli growth modulation, two-sided OD650, primary screen, E. coli filamentation project, strain DRC41, 24 h (AID 1093);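 further: MC1000 strain lacking acrAB efflux and sulA so SOS filamentation is blocked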
- run conditions: OD650, 24 h, higher = more signal, called active from +8 up or from −8 down
Activity calls are given as the source filed them.
readout: z-score

INSERT INTO results (compound, experimental_value) VALUES
  ('COC(=O)[C@@]1(Cc2ccc(F)cc2)[C@H]2c3cc(C(=O)N(C)C)n(CCF)c3C[C@H]2CN1C(=O)c1ccccc1', '1.25 (inactive)'),
  ('CCOC(=O)C[C@H]1[C@H](OC(=O)c2cc3ccccc3oc2=O)[C@@H](NC(=O)c2ccc(-c3ccccc3)cc2)c2cc(OCCCO)ccc2N1C(=O)Cc1ccc(OC)cc1', '-0.423 (inactive)'),
  ('O=C1O[C@H](c2ccccc2)[C@H](c2ccccc2)N2[C@H]1[C@@H](C(=O)Nc1nc3ccccc3s1)[C@]1(C(=O)Nc3ccccc31)[C@H]2c1ccccc1OCCO', '0.732 (inactive)'),
  ('O=C1NC(=O)C2C1C=CC(C(O)C(O)CO)N2Nc1ccccn1 (configuration not stated)', '-1.02 (inactive)'),
  ('COc1ccc(C(=O)Nc2ccc(CN3C(=O)[C@@]4(O[C@@H](CC(=O)N(CCO)Cc5ccccc5)[C@H]([Si](C)(C)c5ccc(OC)cc5)[C@H]4C)c4ccccc43)cc2)cc1', '1.68 (inactive)');

Query block: Entry under review: O=C1NC(=O)C2C1C=CC(C(O)c1ccc(F)cc1)N2Nc1ccc(Cl)cc1Cl (configuration not stated) . Reported z-score?
Result block: -1.3 (inactive)

Query block: Quick check: z-score of "COc1ccc(CCNC(=O)[C@@]2(C)c3ccccc3C(=O)N(Cc3ccc(OC(F)(F)F)cc3)[C@H]2c2ccc(CO)cc2)cc1" ?
Result block: -0.663 (inactive)
